Tested on: ATP;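 further: ATP exposure 15 min at 22 °C before imaging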
Assay: switch fluorescence ratio, 500 uM ATP over buffer (Cy3 cluster intensity, sum of 5 cycles each) (fold (ratio)); higher = stronger signal-on switching upon ATP binding; sequences stand for … in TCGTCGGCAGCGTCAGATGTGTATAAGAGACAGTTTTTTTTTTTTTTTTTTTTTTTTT…TC
Details: aptamer strand: ATP DNA aptamer (quencher-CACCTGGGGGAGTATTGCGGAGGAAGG + anchor), 100 nM annealed; ATP concentration: 500 uM
assay-metric: switch fluorescence ratio
When you answer, write just the number.

Worked set:
{"columns": ["item-sequence", "switch fluorescence ratio"],
 "data": [
  ["TAAAAGGATT", 0.989],
  ["TAGCTAAATT", 0.99],
  ["ATATCGGGGT", 1],
  ["TAATGGATGT", 0.976],
  ["TTTCCGACGT", 1.46],
  ["TATCGTGATG", 0.992]
]}

Lookup: Given CGCCTTGTTC , state its recorded switch fluorescence ratio.
Found: 1.01

Lookup: Can you share its switch fluorescence ratio? I mean this sequence: CTGATTGTGT
Found: 0.972

Lookup: I'd like to know its switch fluorescence ratio. The sequence in question is ATTGGTTACG
Found: 1.01

Lookup: Reported switch fluorescence ratio for CGGATTAGTG : what is it?
Found: 0.964

Lookup: Any idea what switch fluorescence ratio was measured for TTGGAAGATT ?
Found: 0.988

Lookup: Item under review: GGGTGCCAGT . Reported switch fluorescence ratio?
Found: 0.963

* * *

Entries and their switch fluorescence ratio values follow.
Test system: ATP;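 further: ATP exposure 15 min at 22 °C before imaging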
Experiment: switch fluorescence ratio, 500 uM ATP over buffer (Cy3 cluster intensity, sum of 5 cycles each) (fold (ratio)); higher = stronger signal-on switching upon ATP binding; sequences stand for … in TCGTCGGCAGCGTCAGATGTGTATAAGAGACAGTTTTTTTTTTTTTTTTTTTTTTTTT…TC
Conditions: aptamer strand: ATP DNA aptamer (quencher-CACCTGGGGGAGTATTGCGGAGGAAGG + anchor), 100 nM annealed; ATP concentration: 500 uM
Just the number, please, no unit attached.

Record excerpt, results attached:
{"columns": ["item-sequence", "switch fluorescence ratio"],
 "data": [
  ["GGAGATTTGG", 0.979],
  ["ATTTAGAATG", 1.02],
  ["TGGATGGGTA", 1.22]
]}

Please find the next sequence below.
Lookup: # switch fluorescence ratio lookup, item TTTCAAGGGA
Found: 0.99

* * *

Test system: ATP;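 further: ATP exposure 15 min at 22 °C before imaging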
Assay: switch fluorescence ratio, 500 uM ATP over buffer (Cy3 cluster intensity, sum of 5 cycles each) (fold (ratio)); higher = stronger signal-on switching upon ATP binding; sequences stand for … in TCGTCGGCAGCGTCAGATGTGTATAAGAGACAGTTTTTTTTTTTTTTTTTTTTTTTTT…TC
Conditions: aptamer strand: ATP DNA aptamer (quencher-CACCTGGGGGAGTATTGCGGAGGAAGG + anchor), 100 nM annealed; ATP concentration: 500 uM
Listed here: items and their measured switch fluorescence ratio.
Please reply with the value in numeric form only.

Examples with their reported switch fluorescence ratio follow.
{"columns": ["item-sequence", "test-value"],
 "data": [
  ["AACTGGCTGC", 0.993],
  ["TATGCATATT", 1.04],
  ["GGGTTTTTAC", 1.03]
]}

Lookup: Entry AATCAGAAAG , system ATP: what switch fluorescence ratio was measured?;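 further: ATP exposure 15 min at 22 °C before imaging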
Found: 1.15

Lookup: State its switch fluorescence ratio on ATP: GGGGCTTTTT
Found: 1

Lookup: API: value(readout= switch fluorescence ratio, system= ATP, query= CGTTATATCC );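 further: ATP exposure 15 min at 22 °C before imaging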
Found: 1.06

Lookup: API: value(readout= switch fluorescence ratio, system= ATP, query= AATGCAGTGC );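 further: ATP exposure 15 min at 22 °C before imaging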
Found: 1.26

Lookup: Provide the documented switch fluorescence ratio with ATP as the system for TTTCGCCATG
Found: 0.995

Lookup: // map TGTTGTGCAG to recorded switch fluorescence ratio (system: ATP);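 further: ATP exposure 15 min at 22 °C before imaging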
Found: 0.958

Lookup: # query: switch fluorescence ratio | item GGTCGGTGCG | system: ATP;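 further: ATP exposure 15 min at 22 °C before imaging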
Found: 0.991

* * *

System: ATP;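 further: ATP exposure 15 min at 22 °C before imaging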
Assay: switch fluorescence ratio, 500 uM ATP over buffer (Cy3 cluster intensity, sum of 5 cycles each) (fold (ratio)); higher = stronger signal-on switching upon ATP binding; sequences stand for … in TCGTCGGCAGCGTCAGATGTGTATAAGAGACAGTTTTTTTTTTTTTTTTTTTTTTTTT…TC
Conditions: aptamer strand: ATP DNA aptamer (quencher-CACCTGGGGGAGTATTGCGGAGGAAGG + anchor), 100 nM annealed; ATP concentration: 500 uM
Entries annotated with measured switch fluorescence ratio

Below, each entry is followed by its recorded switch fluorescence ratio result.
{"columns": ["item-sequence", "system", "switch fluorescence ratio"],
 "data": [
  ["ACGGCTGTTA", "ATP", 1.01],
  ["GGGATAGGAA", "ATP", 0.993],
  ["GTTCTGTCGG", "ATP", 1],
  ["TAGGAGTTTG", "ATP", 0.989],
  ["TTATCGATGA", "ATP", 1]
]}

Attention now shifts to the item below.
Lookup: Data request, read-out switch fluorescence ratio, for CGGATCGTCG
Found: 0.984

* * *

Reported switch fluorescence ratio values are given for each entry in this list.
System: ATP;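 further: ATP exposure 15 min at 22 °C before imaging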
Test: switch fluorescence ratio, 500 uM ATP over buffer (Cy3 cluster intensity, sum of 5 cycles each) (fold (ratio)); higher = stronger signal-on switching upon ATP binding; sequences stand for … in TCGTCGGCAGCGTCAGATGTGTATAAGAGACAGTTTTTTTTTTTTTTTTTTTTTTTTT…TC
Settings: aptamer strand: ATP DNA aptamer (quencher-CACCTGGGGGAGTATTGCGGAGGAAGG + anchor), 100 nM annealed; ATP concentration: 500 uM

# count of solved cases: 2
{"columns": ["item-sequence", "switch fluorescence ratio"],
 "data": [
  ["AATAATATAG", 0.996],
  ["AGAGGTTTTT", 0.989]
]}

For the next question, use this sequence.
Lookup: Using the record for GCTTTTGGTA , report its switch fluorescence ratio.
Found: 1

* * *

Readings of switch fluorescence ratio for the listed sequences
Test system: ATP;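 further: ATP exposure 15 min at 22 °C before imaging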
Experiment: switch fluorescence ratio, 500 uM ATP over buffer (Cy3 cluster intensity, sum of 5 cycles each) (fold (ratio)); higher = stronger signal-on switching upon ATP binding; sequences stand for … in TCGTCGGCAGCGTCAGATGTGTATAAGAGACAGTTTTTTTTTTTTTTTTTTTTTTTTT…TC
Details: aptamer strand: ATP DNA aptamer (quencher-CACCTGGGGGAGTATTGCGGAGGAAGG + anchor), 100 nM annealed; ATP concentration: 500 uM
Give the figure only, with no unit attached.

Solved cases (5 shown):
{"columns": ["item-sequence", "system", "test-value"],
 "data": [
  ["TTATTTAATT", "ATP", 0.998],
  ["ACGGAGGGGT", "ATP", 1.14],
  ["ATTTAAGAGG", "ATP", 1],
  ["ACTTGGGATG", "ATP", 0.982],
  ["TTCACGGACC", "ATP", 1.45]
]}

Lookup: Requested field: switch fluorescence ratio. Item: AATGTTGGGA
Found: 0.995

Lookup: I am curious: what switch fluorescence ratio value has been reported for GGGAAGGGGA ?
Found: 1.04

Lookup: Quick check: switch fluorescence ratio of GAGTCGGTTA ?
Found: 0.98

Lookup: Return reported switch fluorescence ratio; argument: GGGGGTTGGG
Found: 1.01

Lookup: What value of switch fluorescence ratio has been recorded for this entry: CATGTTGGTA
Found: 0.995

Lookup: Please report the recorded switch fluorescence ratio for TCATACATTT .
Found: 0.98

Lookup: Need switch fluorescence ratio, item TGAACTTGGT
Found: 0.929

Lookup: Consider the sequence CGATGTTATG and give its measured switch fluorescence ratio.
Found: 1.02

Lookup: Reported switch fluorescence ratio for ATGTAATATG : what is it?
Found: 0.992

Lookup: Quick check: switch fluorescence ratio of CGTGCCAGCA ?
Found: 0.983

Lookup: For the sequence CTCCGGGGGA , what switch fluorescence ratio is on record?
Found: 1.33

Lookup: Which switch fluorescence ratio reading was recorded for the sequence TTGGGGGGAC ?
Found: 1.03

Lookup: switch fluorescence ratio lookup needed for TAAATTGTCG , thanks.
Found: 0.994

Lookup: Please report the recorded switch fluorescence ratio for ATTGTGCGGG .
Found: 1.01

Lookup: Field request: switch fluorescence ratio | item: TGTTTGAGGT
Found: 0.999

Lookup: // lookup switch fluorescence ratio for AATTAGTTGC
Found: 0.989

Lookup: Would you mind telling me what switch fluorescence ratio value was observed for AAGGGGATTT ?
Found: 0.975

Lookup: Can you share its switch fluorescence ratio? I mean this sequence: ATGGGGTGCG
Found: 1

Lookup: Returns the measured switch fluorescence ratio for the input sequence. Input: CGGTTGATGC
Found: 0.997

Lookup: I would be grateful if you could share the reported switch fluorescence ratio for TTAAGAAAAA .
Found: 1.01
